Hello, the source for this data is patent US20250250357A1, in case you need it.

# System Name: T1, human MSLN-R3-3 polypeptide (human)
# T1 construct: also called human MSLN-R3-3 protein; hMSLN-R3-3
# Protocol: ELISA, coated antigen; antibody 0.01 nM
Measurement Kind: OD450

Reference set (5 entries):
Binder	OD450
S009-F3.74.20 (antibody, human IgG1, kappa, V domains shown, Human-murine chimeric antibody, human IgG1/kappa constant regions) VH: RVQLQQSGAELVRPGASVTLSCKASGYTFTDSEMHWVKQTPVHGLEWIGAIDPEIDGTAYNQNFRDKAILTADKSSSTAYMELRSLTSEDSAVYYCTTYFGSGYGYFDVWGTGTTVTVSS VL: DVVMTQTPLSLSVSLGDQASISCRSSQSLVYSNGNTYLHWFLQKPGQSPKLLIYKVSNRFSGVPDRFSGSGSGTDFTLKINRVEAEDLGVYFCSQSTHIPFTFGAGTKLELKR	0.21 OD450
S009-F3.7.3 (antibody, human IgG1, kappa, V domains shown, Human-murine chimeric antibody: murine VH/VL on human IgG1 heavy chain constant region and human kappa constant region) VH: EVNFEESGGGLVQPGGSMKLSCVASGFTFSNYWMNWVRQSPEKGLEWVAQIRLKSDNYATHYAESVKGRFTISRDDFKSSVYLQMNNLRAEDTGIYYCTVGTGGYWGQGTTLTVSS VL: DIVLTQSPASLAMSLGKRATISCRASESVSIVGTNVIHWFQQKPGQPPKLLIYHASNLETGVPARFSGSGSGTDFTLTIDPVEEDDVAIYHCLQSRKIPWTFGGGTKLEIKR	0.07 OD450
S009-F3.45.21 (antibody, human IgG1, kappa, V domains shown, Human-murine chimeric antibody, human IgG1/kappa constant regions) VH: DVQLQESGPGLVKPSQSLSLTCSVTGDSITSGYYWNWIRQFPGNKLEWMGFIRFDGTNNYNPSLKNRISITRDTSKNQFFLKLNSVTTEDTATYYCAREGSYAPAWFAYWGQGTLVTVSA VL: QIVLTQSPAIMSASPGEKVTMTCSASSSLSYMYWYQQKPGSSPRLLIYDTSNLASGVPVRFSGSGSGTSYSLTISRMEAEDAATYYCQQWSSYPPTFGGGTKLEIKR	0.07 OD450
S009-F3.38.10 (antibody, human IgG1, kappa, V domains shown, Human-murine chimeric antibody, human IgG1/kappa constant regions) VH: EVQLQQSGPVLVKPGASVKMSCEASGYIFTDYYMNWVKKSHGKSLEWIGVINPKNGVISHNQKFKGKATLTVDKSSNTAYMELSSLTSEDSAVYYCANYGSRFYAMDYWGQGTSVTVSS VL: DVVMTQTPLSLPVSLGDQASISCRSSQSLIHSDGNTYLQWYLQKSGQSPKLLIYKVSNRFSGVPDRFSGSGSGTDFTLKISRVETEDLGVYFCSQTTHVPFTFGSGTKLEIKR	0.08 OD450
S009-F3.80.22 (antibody, human IgG1, kappa, V domains shown, Human-murine chimeric antibody, human IgG1/kappa constant regions) VH: QVQLQQSGAELVRPGASVTLSCKASGYTFTDYEIHWVKQTPVHGLEWIGAFDPEIGGSAYNQKFKDRATLTADKSSSTAYMELHSLTAEDSAVYYCTDYYGSSSGYFDVWGTGTTVTVSS VL: DVVMTQTPLSLPVSLGDQASISCRSSQSLEHNNGNTYLHWFLHKPGQSPKLLIYKVSNRFSGVPDRFSGSGSGTDFTLKISRVEAEDLGVYFCSQSTHVPFTFGSGTKLEIKR	0.55 OD450

Let us examine a further case.
[Q] OD450 for S009-F3.16.1 (antibody, human IgG1, kappa, V domains shown, Human-murine chimeric antibody, human IgG1/kappa constant regions) VH: EVKFEESGGGLVQPGGSMKLSCVASGFTFSNYWMNWVRQSPEKGLEWVAQIRLKSDNYATHYAESVKGRFSISRDDSKSSVYLQMNNLRAEDTGIYYCSVGTGGYWGQGTTLTVSS VL: DIVLTQSPASLALSPGKRATISCRASESVSIIGTDVIHWFQQKPGQPPKLLIYHASNLETGVPARFSGSGSRTDFTLTIDPVEEDDVAIYYCLQSRKIPWTFGGGTKLEIKR ?
[A] 0.07 OD450
